Data provenance: ChEMBL document CHEMBL6083180

Test system: MV4-11
Test details: Antiproliferative activity against human MV4-11 cells at 100 nM incubated for 72 hrs by MTT assay relative to control
Type: functional
Recorded measurements of inhibition at 0.1 µM, one per entry
Express it in %; write the number only.

Check out these entries, answers already filled in.
>  <Compound>
C=C1/C(=C\C=C2/CCC[C@@]3(C)[C@H]2CCCC[C@H]3[C@H](C)CCCC(C)(C)O)C[C@@H](O)C[C@@H]1O

>  <inhibition at 0.1 µM, %>
44.2

$$$$
>  <Compound>
CC1[C@H](O)CC(=C/C=C2\CCC[C@@]3(C)[C@H]2CCCC[C@H]3[C@H](C)CCCC(C)(C)O)C[C@H]1O (stereo partly specified)

>  <inhibition at 0.1 µM, %>
39.7

$$$$
>  <Compound>
C[C@H](CCCC(C)(C)O)[C@@H]1CCCC[C@H]2/C(=C/C=C3C[C@@H](O)C(=CCCO)[C@H](O)C3)CCC[C@@]21C

>  <inhibition at 0.1 µM, %>
25.5

$$$$

Inquiry: Please report the recorded inhibition at 0.1 µM for "C[C@H](CCCC(C)(C)O)[C@@H]1CCCC[C@H]2/C(=C/C=C3C[C@@H](O)C[C@H](O)C3)CCC[C@@]21C" .
Reply text: 25.3

Inquiry: Please report the recorded inhibition at 0.1 µM for "C=C1[C@H](O)CC(=C/C=C2\CCC[C@@]3(C)[C@H]2CCCC[C@H]3[C@H](C)CCCC(C)(C)O)C[C@H]1O" .
Reply text: 32.6

Inquiry: Please report the recorded inhibition at 0.1 µM for "C=C1/C(=C\C=C2/CCC[C@]3(C)[C@@H]([C@H](C)CCCC(C)(C)O)CC[C@@H]23)C[C@@H](O)C[C@@H]1O" .
Reply text: 39.8

* * *

Tested on: HCC4006
Test details: Antiproliferative activity against human HCC4006 cells incubated for 72 hrs by SRB assay
Assay type: functional, cell-based
Test context: HCC4006, 72 h
Result type: IC50 (nM)
Express it in nM; write the number only.

Check out these entries, answers already filled in.
>  <Compound>
CC1[C@H](O)CC(=C/C=C2\CCC[C@@]3(C)[C@H]2CCCC[C@H]3[C@H](C)CCCC(C)(C)O)C[C@H]1O (some centres undefined)

>  <IC50 / nM>
82.6

$$$$
>  <Compound>
C[C@H](CCCC(C)(C)O)[C@@H]1CCCC[C@H]2/C(=C/C=C3C[C@@H](O)C[C@H](O)C3)CCC[C@@]21C

>  <IC50 / nM>
45.2

$$$$
>  <Compound>
C=C1[C@H](O)CC(=C/C=C2\CCC[C@@]3(C)[C@H]2CCCC[C@H]3[C@H](C)CCCC(C)(C)O)C[C@H]1O

>  <IC50 / nM>
27.7

$$$$

Turning now to a further record.
Inquiry: Please report the recorded IC50 for "C=C1/C(=C\C=C2/CCC[C@@]3(C)[C@H]2CCCC[C@H]3[C@H](C)CCCC(C)(C)O)C[C@@H](O)C[C@@H]1O" .
Reply text: 49.6

* * *

Recorded measurements of inhibition at 0.1 µM, one per entry
System: MCF7
Test details: Antiproliferative activity against human MCF7 cells at 100 nM incubated for 72 hrs by SRB assay relative to control
Type: functional
Express it in %; write the number only.

Check out these entries, answers already filled in.
>  <Compound>
C=C1[C@H](O)CC(=C/C=C2\CCC[C@@]3(C)[C@H]2CCCC[C@H]3[C@H](C)CCCC(C)(C)O)C[C@H]1O

>  <Quantity unit>
%

>  <inhibition at 0.1 µM>
31

$$$$
>  <Compound>
C[C@H](CCCC(C)(C)O)[C@@H]1CCCC[C@H]2/C(=C/C=C3C[C@@H](O)C(=CCCO)[C@H](O)C3)CCC[C@@]21C

>  <Quantity unit>
%

>  <inhibition at 0.1 µM>
21.3

$$$$
>  <Compound>
C[C@H](CCCC(C)(C)O)[C@@H]1CCCC[C@H]2/C(=C/C=C3C[C@@H](O)C[C@H](O)C3)CCC[C@@]21C

>  <Quantity unit>
%

>  <inhibition at 0.1 µM>
30.8

$$$$
>  <Compound>
CC1[C@H](O)CC(=C/C=C2\CCC[C@@]3(C)[C@H]2CCCC[C@H]3[C@H](C)CCCC(C)(C)O)C[C@H]1O (stereo not given in full)

>  <Quantity unit>
%

>  <inhibition at 0.1 µM>
29

$$$$

Turning now to a further record.
Inquiry: Please report the recorded inhibition at 0.1 µM for "C=C1/C(=C\C=C2/CCC[C@@]3(C)[C@H]2CCCC[C@H]3[C@H](C)CCCC(C)(C)O)C[C@@H](O)C[C@@H]1O" .
Reply text: 37.9
